# System: P. aeruginosa NR-31040
# ASSAY OVERVIEW: microbe, parasite or virus in culture
# CONDITION CONTEXT: strain NR-31040; antibiotic + D-11 (MICb/MICbc 128/4)
PROPERTY MEASURED: FICI

SUBSTANCE SMILES | PROPERTY MEASURED | RECORDED NUMBER
CO[C@H]1/C=C/O[C@@]2(C)Oc3c(C)c(O)c4c(O)c(c(/C=N/N5CCN(C6CCCC6)CC5)c(O)c4c3C2=O)NC(=O)/C(C)=C\C=C\[C@H](C)[C@H](O)[C@@H](C)[C@@H](O)[C@@H](C)[C@H](OC(C)=O)[C@@H]1C | FICI | 0.094
CN(C)c1ccc(O)c2c1C[C@H]1C[C@H]3[C@H](N(C)C)C(O)=C(C(N)=O)C(=O)[C@@]3(O)C(O)=C1C2=O | FICI | 0.063
CCn1cc(C(=O)O)c(=O)c2ccc(C)nc21 | FICI | 0.063
C[C@@H](O)[C@H]1C(=O)N2C(C(=O)O)=C(S[C@@H]3CN[C@H](C(=O)N(C)C)C3)[C@H](C)[C@H]12 | FICI | 0.531
CO[C@@H]1[C@@H](OC(N)=O)[C@@H](O)[C@H](Oc2ccc3c(O)c(NC(=O)c4ccc(O)c(CC=C(C)C)c4)c(=O)oc3c2C)OC1(C)C | FICI | 0.281
CO[C@H]1[C@H](OC(=O)c2ccc(C)[nH]2)[C@H](O)[C@@H](Oc2ccc3c(O)c(NC(=O)c4c[nH]c(C(=O)Nc5c(O)c6ccc(O[C@H]7OC(C)(C)[C@@H](OC)[C@H](OC(=O)c8ccc(C)[nH]8)[C@@H]7O)c(C)c6oc5=O)c4C)c(=O)oc3c2C)OC1(C)C | FICI | 0.281
CC[C@H]1OC(=O)[C@H](C)[C@@H](O[C@H]2C[C@@](C)(OC)[C@@H](O)[C@H](C)O2)[C@H](C)[C@@H](O[C@@H]2O[C@H](C)C[C@H](N(C)C)[C@H]2O)[C@](C)(O)C[C@@H](C)CN(C)[C@H](C)[C@@H](O)[C@]1(C)O | FICI | 0.281
CO[C@H]1/C=C/O[C@@]2(C)Oc3c(C)c(O)c4c(O)c(c(/C=N/N5CCN(C)CC5)c(O)c4c3C2=O)NC(=O)/C(C)=C\C=C\[C@H](C)[C@H](O)[C@@H](C)[C@@H](O)[C@@H](C)[C@H](OC(C)=O)[C@@H]1C | FICI | 0.063

Source listed as paper PMC8445441.
